# Test system: MCF-7 cells
# assay_procedure: MTT cytotoxicity assay, MCF-7
# experimental_context: read-out: cytotoxicity IC50; MCF-7, breast; MTT, 48 h treatment; spread in brackets
reported_endpoint: IC50

In [3]: df
Out[3]:
                                   molecule  system_under_test  reported_endpoint  observed_result
0  CC[O][Pt]([NH2])([NH2])([Cl])([Cl])[O]C(=O)CCC(=O)Oc1c(C)c(C)c2c(c1C)CCC(C)(CCCC(C)CCCC(C)CCCC(C)C)O2 (stereo not shown)        MCF-7 cells               IC50           5.9 µM

###

# System: MRC-5 non-tumorigenic lung fibroblast cells
# assay_procedure: MTT cytotoxicity assay, MRC-5
# experimental_context: read-out: cytotoxicity IC50; MRC-5, lung normal; MTT, 48 h treatment; spread in brackets

molecule	IC50
CC[O][Pt]([NH2])([NH2])([Cl])([Cl])[O]C(=O)CCC(=O)Oc1c(C)c(C)c2c(c1C)CCC(C)(CCCC(C)CCCC(C)CCCC(C)C)O2 (stereo not drawn) [Pt(IV)(α-TOS)(OEt)]	5.3 µM

###

# Test system: HCT116 cells
# assay_procedure: MTT cytotoxicity assay, HCT116
IC50 reference
reported_endpoint: IC50 (µM)

compound	unit_of_measure	result_modifier	observed_result
CC(=O)[O][Pt]([NH2])([NH2])([Cl])([Cl])[O]C(C)=O	µM	>	100
Cc1c(C)c2c(c(C)c1OC(=O)CCC(=O)O)CC[C@@](C)(CCC[C@H](C)CCC[C@H](C)CCCC(C)C)O2 [α-TOS, α-tocopherol succinate, reference compound]	µM	=	31.2

###

# System: HCT116 cells
# assay_procedure: MTT cytotoxicity assay, HCT116
# experimental_context: read-out: cytotoxicity IC50; HCT116, colon; MTT, 48 h treatment; spread in brackets
reported_endpoint: IC50 (µM)

In [3]: df
Out[3]:
                                   compound  system_under_test  reported_endpoint  observed_result
0  CC[O][Pt]([NH2])([NH2])([Cl])([Cl])[O]C(=O)CCC(=O)Oc1c(C)c(C)c2c(c1C)CCC(C)(CCCC(C)CCCC(C)CCCC(C)C)O2 (stereo not shown)       HCT116 cells               IC50             1.24
